Overview of reported koff across a group of binders:
# test_target: T1, recombinant human IL-36R extracellular domain expressed with a C-terminal myc-myc-hexahistidine tag (human, UniProt Q9HB29 20-337)
# T1 construct: also called hIL-36R-MMH; hIL-36R.mmH
# T1 sequence (Q9HB29 other isoform, or with tags, fused parts or gaps limits assumed): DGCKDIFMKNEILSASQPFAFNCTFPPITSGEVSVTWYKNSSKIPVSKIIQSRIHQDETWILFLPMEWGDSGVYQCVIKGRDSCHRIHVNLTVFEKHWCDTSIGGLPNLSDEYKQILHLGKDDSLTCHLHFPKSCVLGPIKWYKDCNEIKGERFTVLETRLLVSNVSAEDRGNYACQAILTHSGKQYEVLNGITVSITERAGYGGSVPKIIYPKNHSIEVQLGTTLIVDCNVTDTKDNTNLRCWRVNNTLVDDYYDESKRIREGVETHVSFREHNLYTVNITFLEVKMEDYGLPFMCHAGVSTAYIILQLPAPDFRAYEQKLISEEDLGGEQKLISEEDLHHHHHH
# measurement_protocol: SPR (Biacore 4000), mAb captured on anti-human Fc, 25°C
Supply the numeric figure in s⁻¹, leaving out any unit text.

binder	unit	test_result
H4H14700P2 (antibody, human IgG4 S228P, kappa, V domains shown) VH: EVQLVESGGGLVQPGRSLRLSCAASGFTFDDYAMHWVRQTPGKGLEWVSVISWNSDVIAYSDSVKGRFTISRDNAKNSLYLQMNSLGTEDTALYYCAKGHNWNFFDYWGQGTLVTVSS VL: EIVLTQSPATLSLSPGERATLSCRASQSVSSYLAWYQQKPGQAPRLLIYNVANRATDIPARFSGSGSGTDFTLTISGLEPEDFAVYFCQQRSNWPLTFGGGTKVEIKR	s⁻¹	0.000579

Could you tell me which koff is on file for H4H14708P2 (antibody, human IgG4 S228P, kappa, V domains shown) VH: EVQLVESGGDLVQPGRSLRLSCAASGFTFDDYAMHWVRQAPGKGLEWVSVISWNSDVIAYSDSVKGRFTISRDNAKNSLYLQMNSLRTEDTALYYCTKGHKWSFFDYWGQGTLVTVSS VL: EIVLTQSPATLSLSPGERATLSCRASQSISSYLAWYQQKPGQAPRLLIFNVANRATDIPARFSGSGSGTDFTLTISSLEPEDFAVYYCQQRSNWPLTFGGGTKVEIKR ?
0.000623

Continue with H4H14709P (antibody, human IgG4 S228P, kappa, V domains shown) VH: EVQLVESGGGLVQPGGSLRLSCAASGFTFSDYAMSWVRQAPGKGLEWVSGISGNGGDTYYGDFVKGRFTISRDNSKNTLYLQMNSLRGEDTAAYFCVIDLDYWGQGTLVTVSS VL: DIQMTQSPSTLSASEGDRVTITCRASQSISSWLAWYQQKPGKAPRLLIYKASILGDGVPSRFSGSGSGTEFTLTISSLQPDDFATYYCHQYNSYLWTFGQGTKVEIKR
0.000296

Continue with H4H14758P (antibody, human IgG4 S228P, kappa, V domains shown) VH: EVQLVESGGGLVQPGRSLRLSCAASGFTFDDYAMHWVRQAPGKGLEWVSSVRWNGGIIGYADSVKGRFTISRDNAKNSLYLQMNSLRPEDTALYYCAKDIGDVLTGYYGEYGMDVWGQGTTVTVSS VL: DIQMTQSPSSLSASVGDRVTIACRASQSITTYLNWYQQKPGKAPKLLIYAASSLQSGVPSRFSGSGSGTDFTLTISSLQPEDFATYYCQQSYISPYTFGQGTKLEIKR
0.000923
